Consider the following compounds; for each one, report its EX(nm).
assay-procedure: Fluorescence excitation/emission of the styryl dye library compounds
Assay type: physicochemical
study-conditions: EX/EM peak no. 1

For the compound Cc1ccccc1C=Cc1ccc2ccccc2[n+]1C.[I-] , what EX(nm) is on record?
420 nm

Data request, read-out EX(nm), for COc1ccc(C=Cc2cc[n+](C)c3ccccc23)c2ccccc12.[I-]
480(broad) nm

Any idea what its EX(nm) is? The compound is COc1ccc2ccccc2c1C=Cc1cccc(C)[n+]1C.[I-]
420 nm

Given C[n+]1ccc(C=Cc2ccc(Br)cc2)cc1.[I-] , state its recorded EX(nm).
375 nm

For the compound shown here, Cc1ccnc(-c2cc(/C=C/c3ccccn3)cc[n+]2C)c1.[I-] , give the reported EX(nm).
400 nm
